# ASSAY PROCEDURE: Oral bioavailability and plasma kinetics in mice (serum concentration)
# Format: in vivo, Balb/c mice
# TEST SETTINGS: mouse, 10 mg/kg i.v., time of sample collection 30
Counter-ions that a name gives are not always drawn.
Label 1 when c in the serum 1st analysis is at or above 0.7 µg/mL; anything below gets 0.

INSERT INTO results (compound, class_assignment) VALUES
  ('C[C@H](NC(=O)C(CO)NS(=O)(=O)Cc1ccccc1)C(=O)NCc1ccc(NC(=N)N)cc1 (some centres unmarked) [WX-532, hydrochloride]', 1),
  ('N=C(N)Nc1ccc(CNC(=O)CNC(=O)C(CO)NS(=O)(=O)Cc2cccc([N+](=O)[O-])c2)cc1 (centres unmarked) [WX-C316, hydrochloride]', 1),
  ('CC1(C)C2CCC1(CS(=O)(=O)NC(CO)C(=O)NCC(=O)NCc1ccc(NC(=N)N)cc1)C(=O)C2 (centres unmarked) [WX-C298, hydrochloride]', 1),
  ('N=C(N)Nc1ccc(CNC(=O)CNC(=O)C(CO)NS(=O)(=O)Cc2ccc(Cl)cc2)cc1 (centres unmarked) [WX-C340, hydrochloride]', 1),
  ('CN(CC(=O)NCc1ccc(NC(=N)N)cc1)C(=O)C(CO)NS(=O)(=O)Cc1ccccc1 (centres unmarked)', 0),
  ('CCCCS(=O)(=O)NC(CO)C(=O)NCC(=O)NCc1ccc(NC(=N)N)cc1 (centres unmarked) [WX-C300, hydrochloride]', 1);

Reference source: patent US20040266766A1
